System: Lolium perenne (LOLPE)
Test: Glasshouse assay for herbicidal activity (pre- and post-emergence), percentage phytotoxicity
Format: in vivo
Details: Lolium perenne, post-emergence, 360 h, POST-emergence, rate 250 g/ha, visual score 15 DAA (100%=total damage, 0%=no damage); read-out: Post-emergence herbicidal activity (percentage phytotoxicity) LOLPE POST
Procedure: Test—Glasshouse Assay for Herbicidal Activity Seeds of a variety of monocotyledonous and dicotyledonous test plants are sown in standard soil in pots. The plants are cultivated for one day (for pre-emergence (PRE)) or for about 12 days (for post-emergence (POST)) under controlled conditions in a glasshouse (warm climate species at 24/18° C., cool climate species at 20/16° C., both at day/night; 16 hours light; 65% humidity). […]
The entries below are paired with their reported pest or weed control at 250 g/ha.
parameter: pest or weed control at 250 g/ha (%)

INSERT INTO measurements (compound, study_system, parameter, output_unit, quantitative_readout) VALUES
  ('CCc1cc(OCC(F)(F)F)cc(C)c1C1C(=O)CC(CC(=O)NC(C)(C)C)C1=O (centres unmarked)', 'Lolium perenne (LOLPE)', 'pest or weed control at 250 g/ha', '%', 100),
  ('C#CC(C)(C)NC(=O)CC1CC(=O)C(c2c(C)cc(-n3cc(Cl)cn3)cc2C)C1=O (centres unmarked)', 'Lolium perenne (LOLPE)', 'pest or weed control at 250 g/ha', '%', 70),
  ('CCc1cc(-n2cc(Cl)cn2)cc(C)c1C1C(=O)CC(CC(=O)NC(C)C)C1=O (centres unmarked)', 'Lolium perenne (LOLPE)', 'pest or weed control at 250 g/ha', '%', 100),
  ('COCCN(CCOC)C(=O)CC1CC(=O)C(c2c(C)cc(-c3ncc(F)cn3)cc2C)C1=O (centres unmarked)', 'Lolium perenne (LOLPE)', 'pest or weed control at 250 g/ha', '%', 90),
  ('CCc1cc(OCC(F)(F)F)cc(C)c1C1C(=O)CC(CC(N)=O)C1=O (centres unmarked)', 'Lolium perenne (LOLPE)', 'pest or weed control at 250 g/ha', '%', 90),
  ('Cc1cc(-n2cc(Cl)cn2)cc(C)c1C1C(=O)CC(CC(=O)NCc2cccc(F)c2)C1=O (centres unmarked)', 'Lolium perenne (LOLPE)', 'pest or weed control at 250 g/ha', '%', 80),
  ('CCc1cc(C)cc(C)c1C1C(=O)CC(CC(=O)N(C)C(C)(C)C)C1=O (centres unmarked)', 'Lolium perenne (LOLPE)', 'pest or weed control at 250 g/ha', '%', 100),
  ('Cc1cc(-c2ncc(C#N)cn2)cc(C)c1C1C(=O)CC(CC(=O)NC(C)(C)C)C1=O (centres unmarked)', 'Lolium perenne (LOLPE)', 'pest or weed control at 250 g/ha', '%', 90);

---

Test system: Avena fatua (AVEFA)
Assay: Glasshouse assay for herbicidal activity (pre- and post-emergence), percentage phytotoxicity
Type: in vivo
Details: Avena fatua, pre-emergence, 480 h, Rate 250 g/ha; pre-emergence; assessed visually 20 DAA; 100%=total damage, 0%=no damage; read-out: Pre-emergence herbicidal activity (percentage phytotoxicity) AVEFA PRE
parameter: pest or weed control at 250 g/ha (%)

INSERT INTO assay_data (compound, parameter, quantitative_readout) VALUES
  ('Cc1cc(C)c(C2C(=O)CC(CC(=O)NCc3nc4ccccc4s3)C2=O)c(C)c1 (stereo not shown) [Compound A100]', 'pest or weed control at 250 g/ha', 0),
  ('Cc1cc(-n2cc(Cl)cn2)cc(C)c1C1C(=O)CC(CC(=O)NC(C)(C)C)C1=O (stereo not shown) [Compound A67]', 'pest or weed control at 250 g/ha', 90),
  ('Cc1cc(C)c(C2C(=O)CC(CC(=O)NC3CCCC3)C2=O)c(C)c1 (stereo not shown) [Compound A21]', 'pest or weed control at 250 g/ha', 50),
  ('Cc1cc(-c2ccc(C#N)cc2)cc(C)c1C1C(=O)CC(CC(=O)NC(C)C)C1=O (stereo not shown) [Compound A37]', 'pest or weed control at 250 g/ha', 90);
